All figures here come from patent US20160346402A1.

- measurement.target: T1, hTNFRSF12 amino acids a28-80-hIgG1-Fc (human)
- T1 construct: wild-type TWEAKR-Fc (dimeric Fc fusion), coated on the ELISA plate; also called TPP-599; HUMAN-TNFRSF12Aaa28-80-hIgG1-Fc
- test.protocol: ELISA: TWEAKR-Fc construct coated at 62 ng/ml, biotinylated IgG titrated from 100 nM; token + marks IC50 of 1 to […] pM
property: binding result

TPP-2090 (antibody, V domains shown, human IgG1; also called anti-TWEAKR AK-1) VH: EVQLLESGGGLVQPGGSLRLSCAASGFTFSPYPMIWVRQAPGKGLEWVSYISPSGGSTHYADSVKGRFTISRDNSKNTLYLQMNSLRAEDTAVYYCARGGDTYFDYFDYWGQGTLVTVSS VL: DIQMTQSPSSLSASVGDRVTITCRASQSISGYLNWYQQKPGKAPKLLIYQASSLQSGVPSRFSGSGSGTDFTLTISSLQPEDFATYYCQQSYTSPFITFGQGTKVEIKR: binds
P4A8(TPP-1324) (antibody, human IgG1, kappa, V domains shown, human IgG1; variable domains from WO2009/140177 with a human IgG1 constant region added; biotinylated IgG in the ELISA) VH: QVQLVQSGAEVKKPGASVKVSCKGSGYTFTDYGMHWVRQAPGQGLEWMGVISTYNGYTNYNQKFKGRVTMTVDKSTSTAYMELRSLRSDDTAVYYCARAYYGNLYYAMDYWGQGTLVTVSS VL: DIVLTQSPASLAVSLGQRATISCRASKSVSTSSYSYMHWYQQKPGQPPKLLIKYASNLESGVPARFSGSGSGTDFSLNIHPMEEDDTAMYFCQHSRELPFTFGGGTKLEIKR: binds
P3G5(TPP-2195) (antibody, mouse IgG2a, kappa, V domains shown, murine IgG2a; variable domains from WO2009/140177 with a murine IgG2 constant region added; biotinylated IgG in the ELISA) VH: QVQLQQSGPEVVRPGVSVKISCKGSGYTFTDYGIHWVKQSHAKSLEWIGVISTYNGYTNYNQKFKGKATMTVDKSSSTAYMELARLTSEDSAIYYCARAYYGNLYYAMDYWGQGTSVTVSS VL: DIVLTQSPASLAVSLGQRATISCRANKSVSTSSYSYMHWYQQKPGQPPKLLIKYASNLESGVPARFSGSGSGTDFILNIHPVEEEDAATYYCQHSRELPFTFGSGTKLEIKR: binds
